Listed molecules paired with reported log10(IC50)
- TEST TARGET: human GST-p38 kinase alpha (Homo sapiens, UniProt Q16539)
- Construct: The coding region of the human p38a cDNA was obtained by PCR-amplification from RNA isolated from the human monocyte cell line THP.1; made in house; host or cells: E. coli DH10B
- PROTOCOL TEXT: p38 kinase in vitro assay, second format, phosphorylation of EGFRP with 33P-ATP
- Format: biochemical
- MEASUREMENT CONTEXT: p38α in vitro, EGFRP assay procedure; read-out: p38^2 IC50
A value of 2 here means IC50 of 100 in nM, since values are log10.

Examples from the recorded data:
> print(dat)
                                   molecule                               test.target  result.type  readout.value
1  COc1ccc(CNc2cc(-c3c[nH]nc3-c3ccc(Cl)cc3)ccn2)cc1 [Example A-246]  human GST-p38 kinase alpha (Homo sapiens, UniProt Q16539)  log10(IC50)           2.77
2  Cn1cc(-c2ccncc2)c(-c2ccc(Cl)cc2)n1 [Example A-232]  human GST-p38 kinase alpha (Homo sapiens, UniProt Q16539)  log10(IC50)           1.68
3  CCC(CO)Nc1cc(-c2c[nH]nc2-c2ccc(F)cc2)ccn1 (stereo not shown) [Example A-213]  human GST-p38 kinase alpha (Homo sapiens, UniProt Q16539)  log10(IC50)           2.34
4  Clc1ccc(-c2n[nH]cc2-c2ccncc2)cc1 [Example A-230]  human GST-p38 kinase alpha (Homo sapiens, UniProt Q16539)  log10(IC50)           2.25

Bench note: what log10(IC50) did N#Cc1cc(-c2c[nH]nc2-c2ccc(F)cc2)ccn1 [Example A-215] show? 3.37

Consider next the molecule Cc1cnccc1-c1c[nH]nc1-c1ccc(F)cc1 [Example A-258] in the same way. 2.68

And for OCCn1cc(-c2ccnc(F)c2)c(-c2ccc(F)cc2)n1 [Example A-267] ? 2.63

And the next one, Cn1cc(-c2ccnc(F)c2)c(-c2ccc(F)cc2)n1 [Example A-256] ? 2.91

Request: Ic1ccc(-c2n[nH]cc2-c2ccncc2)cc1 [Example A-250] 3.46

Cool, now Cc1cccc(-c2nn(C)cc2-c2ccnc(C)c2)c1 [Example A-235] 2.02

Queued: Cn1cc(-c2ccncc2)c(-c2ccc(F)c(F)c2)n1 [Example A-242] 1.67

What would you report for Fc1ccc(-c2n[nH]cc2-c2ccnc(/C=C/c3ccccc3)c2)cc1 [Example A-244] ? 2.00

Input Fc1cc(-c2c[nH]nc2-c2ccc(Cl)cc2)ccn1 [Example A-240] 2.98

###

- TEST TARGET: human p38 kinase alpha (Homo sapiens)
- Construct: The coding region of the human p38a cDNA was obtained by PCR-amplification from RNA isolated from the human monocyte cell line THP.1; GST (N); made in house; host or cells: E. coli DH10B
- Sequence (Q16539 whole entry): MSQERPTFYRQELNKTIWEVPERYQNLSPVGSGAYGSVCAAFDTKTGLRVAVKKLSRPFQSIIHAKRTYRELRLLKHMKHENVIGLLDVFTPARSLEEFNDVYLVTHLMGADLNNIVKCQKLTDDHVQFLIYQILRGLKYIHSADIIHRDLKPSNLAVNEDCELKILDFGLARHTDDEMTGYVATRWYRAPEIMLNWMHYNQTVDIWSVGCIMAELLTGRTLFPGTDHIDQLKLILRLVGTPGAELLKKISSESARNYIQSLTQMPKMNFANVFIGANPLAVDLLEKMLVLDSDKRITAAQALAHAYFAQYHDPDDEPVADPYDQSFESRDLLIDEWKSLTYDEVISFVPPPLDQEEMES
- PROTOCOL TEXT: p38 kinase in vitro assay, phosphorylation of biotinylated PHAS-I with gamma 32P-ATP
- Type: biochemical
- MEASUREMENT CONTEXT: p38α in vitro, PHAS-I assay procedure; read-out: p38^1 IC50
RESULT TYPE: pIC50
Quick note: pIC50 values are minus log10 of concentrations in mol/L.

Below: 3 molecules and their reported pIC50.
> print(dat)
                                   molecule  readout.value
1  Fc1ccc(-c2n[nH]c(NCCN3CCOCC3)c2-c2ccncc2)cc1 [Example A-218]           7.36
2  C#CCn1cc(-c2ccncc2)c(-c2ccc(F)cc2)n1 [Example A-294]           7.82
3  COc1ccc(CNc2cc(-c3c[nH]nc3-c3ccc(Cl)cc3)ccn2)cc1 [Example A-246]           6.39

// returns reported pIC50 for input COC(=O)CNc1n[nH]c(-c2ccc(F)cc2)c1-c1ccncc1 [Example A-292] 5.94

And what about the molecule Fc1cc(-c2c[nH]nc2-c2ccc(F)c(F)c2)ccn1 [Example A-257] ? 5.97

What about Fc1ccc(-c2n[nH]cc2-c2ccnc(NC3CCNCC3)c2)cc1 [Example A-277] ? 7.59

For Clc1ccc(-c2n[nH]cc2-c2ccncc2)cc1 [Example A-230] then? 6.38

Note, next up: Fc1ccc(CNc2cc(-c3cn(CCN4CCOCC4)nc3-c3ccc(F)cc3)ccn2)cc1 [Example A-276] 6.75
